From: patent USRE39591E1

# Tested on: up to 32 different microorganisms
# experimental_details: in vitro antibacterial activity (MIC), agar dilution on Brain Heart Infusion (BHI) agar with Steers replicator
# Assay type: cell-based
# experimental_conditions: Streptococcus Pneumonia GYR 1171 (code YY); unit assumed
Each entry below carries its reported MIC.
Your answer is read as µg/mL, so omit the unit and give the number.

Here's what some known entries look like.
[[record]]
compound = "CC[C@H]1OC(=O)[C@H](C)C(=O)[C@H](C)[C@@H](O[C@@H]2O[C@H](C)C[C@H](N(C)C)[C@H]2O)[C@@](C)(OCCCc2cnc3ccccc3c2)C[C@@H](C)C2=NCCN3C(=O)O[C@@]1(C)[C@H]3[C@H]2C"
unit_string = "µg/mL"
result_value = 0.03

[[record]]
compound = "CC[C@H]1OC(=O)[C@H](C)C(=O)[C@H](C)[C@@H](O[C@@H]2O[C@H](C)C[C@H](N(C)C)[C@H]2O)[C@@](C)(OCC(O)C#N)C[C@@H](C)C(=O)[C@H](C)[C@@H](O)[C@]1(C)O (stereo partly drawn)"
unit_string = "µg/mL"
result_value = 0.03


Q) Kindly state the measured MIC obtained for `CC[C@H]1OC(=O)[C@H](C)C(=O)[C@H](C)[C@@H](O[C@@H]2O[C@H](C)C[C@H](N(C)C)[C@H]2O)[C@@](C)(OCCCc2ccccc2)C[C@@H](C)C(=O)[C@H](C)[C@H]2OC(=O)O[C@@]21C` with up to 32 different microorganisms.
A) 0.125

====

# Tested on: up to 32 different microorganisms
# experimental_details: in vitro antibacterial activity (MIC), agar dilution on Brain Heart Infusion (BHI) agar with Steers replicator
# Assay type: cell-based
# experimental_conditions: Enterococcus faecism ATCC 8043 (code II); unit assumed
recorded_endpoint: log10 of MIC (log10 of the value in mg/L)
Please interpret these as log10 of MIC where MIC is in mg/L.

Here's what some known entries look like.
[[record]]
compound = "CCC1OC(=O)C(C)C(=O)C(C)C(OC2OC(C)CC(N(C)C)C2O)C(C)(OCC=Cc2cncc3ccccc23)CC(C)C(=O)C(C)C2NC(=O)OC12C (stereo not drawn)"
recorded_endpoint = "log10 of MIC"
result_value = -1.70

[[record]]
compound = "CCC1OC(=O)C(C)C(=O)C(C)C(OC2OC(C)CC(N(C)C)C2O)C(C)(OCC=Cc2ccc3c(c2)OCO3)CC(C)C(=O)C(C)C2NC(=O)OC12C (stereo not drawn)"
recorded_endpoint = "log10 of MIC"
result_value = -1.30

[[record]]
compound = "CC[C@H]1OC(=O)[C@H](C)C(=O)[C@H](C)[C@@H](O[C@@H]2O[C@H](C)C[C@H](N(C)C)[C@H]2O)[C@@](C)(OCC=Cc2ccccc2)C[C@@H](C)C(=O)[C@H](C)[C@H]2NC(=O)O[C@@]21C"
recorded_endpoint = "log10 of MIC"
result_value = -1.30

[[record]]
compound = "CCC1OC(=O)C(C)C(=O)C(C)C(OC2OC(C)CC(N(C)C)C2O)C(C)(OCC=Cc2cccc3cccnc23)CC(C)C(=O)C(C)C2NC(=O)OC12C (stereo not drawn)"
recorded_endpoint = "log10 of MIC"
result_value = -1.30

[[record]]
compound = "CCC1OC(=O)C(C)C(=O)C(C)C(OC2OC(C)CC(N(C)C)C2OC(C)=O)C(C)(OCC=Cc2cnc3ccccc3c2)CC(C)C(=O)C(C)C2NC(=O)OC12C (stereo not drawn)"
recorded_endpoint = "log10 of MIC"
result_value = -1.70

[[record]]
compound = "CC[C@H]1OC(=O)[C@H](C)C(=O)[C@H](C)[C@@H](O[C@@H]2O[C@H](C)C[C@H](N(C)C)[C@H]2O)[C@@](C)(OCC=Cc2ccc(Cl)cc2)C[C@@H](C)C(=O)[C@H](C)[C@H]2OC(=O)O[C@@]21C"
recorded_endpoint = "log10 of MIC"
result_value = -1.00

[[record]]
compound = "C=CCO[C@@]1(C)C[C@@H](C)C(=O)[C@H](C)[C@H]2OC(=O)O[C@]2(C)[C@@H](CC)OC(=O)[C@H](C)C(=O)[C@H](C)[C@H]1O[C@@H]1O[C@H](C)C[C@H](N(C)C)[C@H]1O"
recorded_endpoint = "log10 of MIC"
result_value = 0.19

[[record]]
compound = "CCC1OC(=O)C(C)C(=O)C(C)C(OC2OC(C)CC(N(C)C)C2O)C(C)(OCC=Cc2cccc3ncccc23)CC(C)C(=O)C(C)C2NC(=O)OC12C (stereo not drawn)"
recorded_endpoint = "log10 of MIC"
result_value = -1.30

[[record]]
compound = "CCC1OC(=O)C(C)C(=O)C(C)C(OC2OC(C)CC(N(C)C)C2O)C(C)(OCC=Cc2cnc3ccc([N+](=O)[O-])cc3c2)CC(C)C(=O)C(C)C2NC(=O)OC12C (stereo not drawn)"
recorded_endpoint = "log10 of MIC"
result_value = -1.30

[[record]]
compound = "CC[C@H]1OC(=O)[C@H](C)C(=O)[C@H](C)[C@@H](O[C@@H]2O[C@H](C)C[C@H](N(C)C)[C@H]2O)[C@@](C)(OCCNCc2ccncc2)C[C@@H](C)C(=O)[C@H](C)[C@@H](O)[C@]1(C)O"
recorded_endpoint = "log10 of MIC"
result_value = 0.19


Q) For `CC[C@H]1OC(=O)[C@H](C)C(=O)[C@H](C)[C@@H](O[C@@H]2O[C@H](C)C[C@H](N(C)C)[C@H]2O)[C@@](C)(OCC=Cc2cnc3ccccc3c2)C[C@@H](C)C(=O)[C@H](C)[C@H]2OC(=O)O[C@@]21C` , what is its reported log10 of MIC?
A) -1.00

Q) For `CC[C@H]1OC(=O)[C@H](C)C(=O)[C@H](C)[C@@H](O[C@@H]2O[C@H](C)C[C@H](N(C)C)[C@H]2O)[C@@](C)(OCC=Cc2cnc3ccccc3c2)C[C@@H](C)C(=O)[C@H](C)[C@@H](O)[C@]1(C)O` , what is its reported log10 of MIC?
A) -0.70

Q) For `CC[C@H]1OC(=O)[C@H](C)C(=O)[C@H](C)[C@@H](O[C@@H]2O[C@H](C)C[C@H](N(C)C)[C@H]2O)[C@@](C)(OCCCc2ccccc2)C[C@@H](C)C(=O)[C@H](C)[C@H]2OC(=O)O[C@@]21C` , what is its reported log10 of MIC?
A) -1.00

Q) For CCC1OC(=O)C(C)C(=O)C(C)C(OC2OC(C)CC(N(C)C)C2O)C(C)(OCC=Cc2cnc3ccccc3c2)CC(C)C(=O)C(C)C2N(CC=Cc3cnc4ccccc4c3)C(=O)OC12C (stereo not drawn) , what is its reported log10 of MIC?
A) -0.70

Q) For C=CCOC1(C)CC(C)C(=O)C(C)C2N(CC=C)C(=O)OC2(C)C(CC)OC(=O)C(C)C(=O)C(C)C1OC1OC(C)CC(N(C)C)C1O (stereo not drawn) , what is its reported log10 of MIC?
A) 0.49

Q) For `CC[C@H]1OC(=O)[C@H](C)C(=O)[C@H](C)[C@@H](O[C@@H]2O[C@H](C)C[C@H](N(C)C)[C@H]2O)[C@@](C)(OCC=NO)C[C@@H](C)C(=O)[C@H](C)[C@@H](O)[C@]1(C)O` , what is its reported log10 of MIC?
A) 0.79

Q) For C=CCOC1(C)CC(C)C(=O)C(C)C(O)C(C)(O)C(CC)OC(=O)C(C)C(=O)C(C)C1OC1OC(C)CC(N(C)C)C1O (stereo not drawn) , what is its reported log10 of MIC?
A) 1.10

Q) For C=CCOC1(C)CC(C)C(=NO)C(C)C(O)C(C)(O)C(CC)OC(=O)C(C)C(=O)C(C)C1OC1OC(C)CC(N(C)C)C1O (stereo not drawn) , what is its reported log10 of MIC?
A) 0.79

====

# System: up to 32 different microorganisms
# experimental_details: in vitro antibacterial activity (MIC), agar dilution on Brain Heart Infusion (BHI) agar with Steers replicator
# Assay type: cell-based
# experimental_conditions: Streptococcus bovis A-5169 (code JJ); unit assumed
# Method: Representative compounds of the present invention were assayed in vitro for antibacterial activity as follows: Twelve petri dishes containing successive aqueous dilutions of the test compound mixed with 10 mL of sterilized Brain Heart Infusion (BHI) agar (Difco 0148-01-5) were prepared. Each plate was inoculated with 1:100 (or 1:10 for slow-growing strains, such as Micrococcus and Streptococcus) dilutions of up to 32 different microorganisms, using a Steers replicator block. […]
Each entry below carries its reported MIC.
Your answer is read as µg/mL, so omit the unit and give the number.

Here's what some known entries look like.
[[record]]
compound_structure_string = "CC[C@H]1OC(=O)[C@H](C)C(=O)[C@H](C)[C@@H](O[C@@H]2O[C@H](C)C[C@H](N(C)C)[C@H]2O)[C@@](C)(OCCNCc2ccncc2)C[C@@H](C)C(=O)[C@H](C)[C@@H](O)[C@]1(C)O"
recorded_endpoint = "MIC"
unit_string = "µg/mL"
result_value = 0.2

[[record]]
compound_structure_string = "CC[C@H]1OC(=O)[C@H](C)C(=O)[C@H](C)[C@@H](O[C@@H]2O[C@H](C)C[C@H](N(C)C)[C@H]2O)[C@@](C)(OCC=NO)C[C@@H](C)C(=O)[C@H](C)[C@@H](O)[C@]1(C)O"
recorded_endpoint = "MIC"
unit_string = "µg/mL"
result_value = 1.56


Q) Kindly state the measured MIC obtained for `CC[C@H]1OC(=O)[C@H](C)C(=O)[C@H](C)[C@@H](O[C@@H]2O[C@H](C)C[C@H](N(C)C)[C@H]2O)[C@@](C)(OCC#N)C[C@@H](C)C(=O)[C@H](C)[C@@H](O)[C@]1(C)O` with up to 32 different microorganisms.
A) 0.78
